Entry source: paper PMC11995216

System: PAMPA
assay.setup: Papp (x 10^-6 cm/s) – UV Detection / [row 16]; UV Detection
endpoint: Papp
# number then unit; no other words

Q. Query Papp on PAMPA for CCCCC[C@@H]1OC(=O)[C@@H](C)N(C)C(=O)[C@H](CCCCC)OC(=O)[C@@H](C)N(C)C(=O)[C@H](CCCCC)OC(=O)[C@@H](C)N(C)C(=O)[C@H](CCCCC)OC(=O)[C@@H](C)N(C)C1=O [Compound C1.4, ent-verticilide]
A. 5.98 ×10⁻⁶ cm/s

====

Tested on: PAMPA
assay.setup: Papp (x 10^-6 cm/s) – ELSD Detection / [row 21]; ELSD Detection
endpoint: Papp (×10⁻⁶ cm/s)
// units = ×10⁻⁶ cm/s; emit number, no label

Q. I have this compound here, CCCCC[C@@H]1OC(=O)[C@@H](C)N(C)C(=O)[C@H](CCCCC)OC(=O)[C@@H](C)N(C)C(=O)[C@H](CCCCC)OC(=O)[C@@H](C)N(C)C(=O)[C@H](CCCCC)OC(=O)[C@@H](C)N(C)C1=O [Compound C1.4, ent-verticilide] , and I need its recorded Papp.
A. 4.75

====

Test system: PAMPA
assay.setup: Papp (x 10^-6 cm/s) – UV Detection / [row 4]; UV Detection
Decide using Papp: a value greater than or equal to 50 nm/s is 1.0, a smaller one is 0.0.

As a guide, the following entries are already answered.
- CCCCC[C@@H]1OC(=O)[C@@H](C)N(C)C1=O [Compound C1.1]: 1.0
- CCCCC[C@@H]1OC(=O)[C@@H](C)N(C)C(=O)[C@H](CCCCC)OC(=O)[C@@H](C)N(C)C1=O [Compound C1.2]: 1.0
- CCCCC[C@@H]1OC(=O)[C@@H](C)N(C)C(=O)[C@H](CCCCC)OC(=O)[C@@H](C)N(C)C(=O)[C@H](CCCCC)OC(=O)[C@@H](C)N(C)C(=O)[C@H](CCCCC)OC(=O)[C@@H](C)N(C)C(=O)[C@H](CCCCC)OC(=O)[C@@H](C)N(C)C1=O [Compound C1.5]: 0.0
- CCCCC[C@@H]1OC(=O)[C@@H](C)N(C)C(=O)[C@H](CCCCC)OC(=O)[C@@H](C)N(C)C(=O)[C@H](CCCCC)OC(=O)[C@@H](C)N(C)C(=O)[C@H](CCCCC)OC(=O)[C@@H](C)N(C)C1=O [Compound C1.4, ent-verticilide]: 1.0
- CCCCC[C@@H]1OC(=O)[C@@H](C)N(C)C(=O)[C@H](CCCCC)OC(=O)[C@@H](C)N(C)C(=O)[C@H](CCCCC)OC(=O)[C@@H](C)N(C)C1=O [Compound C1.3, ent-verticilide B1]: 0.0

We now examine a further molecule.
Q. Reported Papp reaches at least 50 nm/s for CCCCC[C@@H]1OC(=O)[C@@H](C)N(C)C(=O)[C@H](CCCCC)OC(=O)[C@@H](C)N(C)C(=O)[C@H](CCCCC)OC(=O)[C@@H](C)N(C)C(=O)[C@H](CCCCC)OC(=O)[C@@H](C)N(C)C(=O)[C@H](CCCCC)OC(=O)[C@@H](C)N(C)C(=O)[C@H](CCCCC)OC(=O)[C@@H](C)N(C)C1=O [Compound C1.6] ?
A. 0.0

====

Test system: PAMPA
assay.setup: Papp (x 10^-6 cm/s) – ELSD Detection / [row 8]; ELSD Detection
endpoint: Papp (×10⁻⁶ cm/s)
Please respond with the number in ×10⁻⁶ cm/s and leave the unit unwritten.

- CCCCC[C@@H]1OC(=O)[C@@H](C)N(C)C(=O)[C@H](CCCCC)OC(=O)[C@@H](C)N(C)C(=O)[C@H](CCCCC)OC(=O)[C@@H](C)N(C)C(=O)[C@H](CCCCC)OC(=O)[C@@H](C)N(C)C1=O [Compound C1.4, ent-verticilide]: 7.27

Would you kindly look at the next entry?
Q. Dear colleague, I am looking for the recorded Papp of the following compound: CCCCC[C@@H]1OC(=O)[C@@H](C)N(C)C(=O)[C@H](CCCCC)OC(=O)[C@@H](C)N(C)C(=O)[C@H](CCCCC)OC(=O)[C@@H](C)N(C)C(=O)[C@H](CCCCC)OC(=O)[C@@H](C)N(C)C(=O)[C@H](CCCCC)OC(=O)[C@@H](C)N(C)C(=O)[C@H](CCCCC)OC(=O)[C@@H](C)N(C)C1=O
A. 1.91
